ASSAY: Blood-brain barrier permeability of the test substance in rats
ASSAY_CONTEXT: male, SD, rat, plasma, oral, 30 mg/kg
Provide the recorded concentration at 0.25 h for the entries that follow.
Just so you know, I need the unit written after the number.

Prompt: Which measured concentration at 0.25 h value corresponds to COc1cc(C(=O)N2CC3C=C(c4nc(C)cnc4OC)CC3C2)c(-n2nccn2)cn1 (stereo not shown) [Compound 42] ?
Response: 372 ng/mL

Prompt: Item COc1ncc(C)nc1C1=CC2CN(C(=O)c3c(F)cccc3-n3nccn3)CC2C1 (stereo not shown) [Compound 39] has what recorded concentration at 0.25 h?
Response: 1020 ng/mL

Prompt: Param item = COc1ccc(C(=O)N2CC3C=C(c4nc(C)cnc4OC)CC3C2)c(-n2nccn2)c1 (stereo not shown) [Compound 41] ; retrieve measured concentration at 0.25 h.
Response: 2570 ng/mL

Prompt: Request the reported concentration at 0.25 h associated with CCOc1ncc(C)nc1C1=CC2CN(C(=O)c3ccc(OC)cc3-n3nccn3)CC2C1 (stereo not shown) [Compound 46]
Response: 485 ng/mL

* * *

Please provide measured Kp at 0.25 h for the entries that follow.
ASSAY: Blood-brain barrier permeability of the test substance in rats
ASSAY_CONTEXT: male, SD, rat, brain/plasma, oral, 30 mg/kg
Just the number, please, no unit attached.

Prompt: Kp at 0.25 h lookup needed for COc1ccc(C(=O)N2CC3C=C(c4nc(C)cnc4OC)CC3C2)c(-n2nccn2)c1 (stereo not shown) [Compound 41] , thanks.
Response: 0.39

Prompt: Query (compound): CCOc1ncc(C)nc1C1=CC2CN(C(=O)c3ccc(OC)cc3-n3nccn3)CC2C1 (stereo not shown) [Compound 46] ; field requested: Kp at 0.25 h
Response: 0.43

Prompt: Item under review: COc1ncc(C)nc1C1=CC2CN(C(=O)c3c(F)cccc3-n3nccn3)CC2C1 (stereo not shown) [Compound 39] . Reported Kp at 0.25 h?
Response: 0.28

Prompt: For the compound COc1cc(C(=O)N2CC3C=C(c4nc(C)cnc4OC)CC3C2)c(-n2nccn2)cn1 (stereo not shown) [Compound 42] , what Kp at 0.25 h is on record?
Response: 0.52

* * *

Can you tell me Selectivity for the items I'm about to list?
TARGET_OF_ASSAY: OX2 receptor (Homo sapiens)
Construct: host or cells: CHO-K1
ASSAY: Orexin target function test (Cisbio HTRF IP-one), CHO-K1-OX2 cells, antagonism of EC80 Orexin 2 receptor agonist
Assay type: cell-based
ASSAY_CONTEXT: ratio of OX1R IC50 to OX2R IC50

Prompt: State the recorded Selectivity for this entry: Cc1nc(C2=CC3CN(C(=O)c4c(F)cccc4-c4cc[nH]n4)CC3C2)nc(C)c1F (stereo not drawn) [Compound 29]
Response: 64

Prompt: What does the data say about its Selectivity? Entry: COc1ccc(C(=O)N2CC3C=C(c4nc(OC)cnc4OC)CC3C2)c(-n2nccn2)c1 (stereo not drawn) [Compound 53]
Response: 89

Prompt: What Selectivity value was documented for this molecule, Cc1nc(C2=CC3CN(C(=O)c4c(F)cccc4-n4nccn4)CC3C2)nc2c1COC2 (stereo not drawn) [Compound 20] ?
Response: 129

Prompt: For COc1ncc(C)nc1C1=CC2CN(C(=O)c3c(F)cccc3-c3ncccn3)CC2C1 (stereo not drawn) [Compound 43] , what is its reported Selectivity?
Response: 75

Prompt: Which Selectivity is listed for COc1ccc(C(=O)N2CC3C=C(c4nc(C)cnc4OC)CC3C2)c(-c2ncccn2)c1 (stereo not drawn) [Compound 48] ?
Response: 154

Prompt: What measured Selectivity goes with Cc1nc(C2=CC3CN(C(=O)c4c(F)cccc4-n4nccn4)CC3C2)nc2c1CCC2 (stereo not drawn) [Compound 17] ?
Response: 131

Prompt: Look up Selectivity: [2H]C([2H])([2H])c1nc(C2=CC3CN(C(=O)c4ccc(F)cc4-n4nccn4)CC3C2)nc(C([2H])([2H])[2H])c1F (stereo not drawn) [Compound 30]
Response: 186

Prompt: What value of Selectivity has been reported for the following molecule? Cc1nc(C2=CC3CN(C(=O)c4c(F)cccc4-n4nccn4)CC3C2)nc(C)c1CF (stereo not drawn) [Compound 38]
Response: 82

Prompt: Could you share which Selectivity value was measured for CCc1c(C)nc(C2=CC3CN(C(=O)c4c(F)cccc4-n4nccn4)CC3C2)nc1C (stereo not drawn) [Compound 11] ?
Response: 72

* * *

TARGET_OF_ASSAY: OX2 receptor (Homo sapiens)
Construct: host or cells: CHO-K1
Sequence (O43614 1-444): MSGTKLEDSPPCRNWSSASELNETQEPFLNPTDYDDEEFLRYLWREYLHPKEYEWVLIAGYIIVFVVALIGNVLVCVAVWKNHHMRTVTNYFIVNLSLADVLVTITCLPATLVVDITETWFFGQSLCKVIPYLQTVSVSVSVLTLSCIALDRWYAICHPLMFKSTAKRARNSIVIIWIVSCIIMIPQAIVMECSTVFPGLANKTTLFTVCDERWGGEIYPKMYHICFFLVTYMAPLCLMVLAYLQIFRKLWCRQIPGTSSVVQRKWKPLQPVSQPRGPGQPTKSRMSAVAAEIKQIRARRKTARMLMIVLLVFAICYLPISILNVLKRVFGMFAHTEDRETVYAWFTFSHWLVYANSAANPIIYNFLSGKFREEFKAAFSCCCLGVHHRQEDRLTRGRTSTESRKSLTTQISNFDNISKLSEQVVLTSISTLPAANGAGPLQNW
ASSAY: Orexin target function test (Cisbio HTRF IP-one), CHO-K1-OX2 cells, antagonism of EC80 Orexin 2 receptor agonist
Assay type: cell-based
ASSAY_CONTEXT: ratio of OX1R IC50 to OX2R IC50
I'd appreciate it if you could supply Selectivity values for the items below.

Prompt: Any idea what its Selectivity is? The compound is [2H]C([2H])([2H])Oc1ccc(C(=O)N2CC3C=C(c4nc(C)cnc4OC)CC3C2)c(-n2nccn2)c1 (stereo not shown) [Compound 57]
Response: 176

Prompt: # input compound: COc1ncc(C2CC2)nc1C1=CC2CN(C(=O)c3ccc(F)cc3-n3nccn3)CC2C1 (stereo not shown) [Compound 55] ; wanted: its Selectivity
Response: 67

Prompt: What measured Selectivity goes with COc1ccc(C(=O)N2CC3C=C(c4nc(CF)cnc4OC)CC3C2)c(-n2nccn2)c1 (stereo not shown) [Compound 59] ?
Response: 106

Prompt: Requested read-out: Selectivity. Entry: [2H]C([2H])([2H])Oc1ncc(C)nc1C1=CC2CN(C(=O)c3ccc(OC)cc3-n3nccn3)CC2C1 (stereo not shown) [Compound 58]
Response: 83

Prompt: Could you tell me which Selectivity is on file for COc1nc(C2=CC3CN(C(=O)c4c(F)cccc4-n4nccn4)CC3C2)nc(C)c1F (stereo not shown) [Compound 8] ?
Response: 100

Prompt: I have this compound here, Cc1nc(C2=CC3CN(C(=O)c4c(F)cccc4-n4nccn4)CC3C2)nc2c1OCC2 (stereo not shown) [Compound 19] , and I need its recorded Selectivity.
Response: 138

Prompt: Suppose we examine the compound COc1ccc(C(=O)N2C[C@H]3CC(c4nc(Cl)cnc4OC)=C[C@H]3C2)c(-n2nccn2)c1 (relative stereo) [Compound 54] ; what Selectivity value has been reported?
Response: 118

* * *

Field: bioavailability. Provide a value for each of the compounds that follow.
ASSAY: in vivo
ASSAY_CONTEXT: male, SD, rat, plasma, po, 30 mg/kg
Report as a plain number; the unit % is understood.

Prompt: Sample COc1ccc(C(=O)N2CC3C=C(c4nc(C)cnc4OC)CC3C2)c(-c2ncccn2)c1 (centres unmarked) — what was its bioavailability?
Response: 37.8

Prompt: Tell me the measured bioavailability of Cc1nc(C2=CC3CN(C(=O)c4ccc(F)cc4-n4nccn4)CC3C2)nc(C)c1F (centres unmarked) , please.
Response: 57.6

Prompt: Requested read-out: bioavailability. Entry: Cc1nc(C2=CC3CN(C(=O)c4c(F)cccc4-n4nccn4)CC3C2)nc(C(C)(C)O)c1F (centres unmarked)
Response: 89.3

Prompt: So what's the measured bioavailability for this one? CCOc1ccc(C(=O)N2CC3C=C(c4nc(C)cnc4OC)CC3C2)c(-n2nccn2)c1 (centres unmarked)
Response: 77.1

Prompt: What value of measured bioavailability is listed for COc1ncc(C)nc1C1=CC2CN(C(=O)c3ccc(F)cc3-n3cccn3)CC2C1 (centres unmarked) ?
Response: 24.4

Prompt: bioavailability lookup needed for COc1nc(C2=CC3CN(C(=O)c4c(F)cccc4-n4nccn4)CC3C2)nc(C)c1F (centres unmarked) , thanks.
Response: 69.8

Prompt: Param item = COc1ccc(C(=O)N2CC3C=C(c4nc(C)c(F)c(C)n4)CC3C2)c(-n2nccn2)c1 (centres unmarked) ; retrieve measured bioavailability.
Response: 83.6

Prompt: Given the entry COc1ccc(C(=O)N2CC3C=C(c4nc(C)cnc4OC)CC3C2)c(-n2nccn2)c1 (centres unmarked) , report its measured bioavailability.
Response: 48
